Answer each item with its documented IC50.
# Tested on: U251
# assay.info: Cell viability determination (MTT), U251
# Format: cell-based
# condition.parameters: Homo sapiens, U-251, U251, glioma, 48 hour incubation, read-out: Drug concentrations for 50% cell viability (IC50)
# Description: Cell Culture: A549, DLD1, SW480, LOVO, HT-29, Hela, U-20S, MES-SA, SK-MEL-28, Panc-1, DU-145, CNE, U251, Eca-109, MGC80-3, QGY-7701, BEL-7404, PLC/PRF/5, Huh-7, and SGC-7901 cells were maintained in Dulbecco's Modified Eagle Medium (DMEM) (imported from Invitrogen, Carlsbad, Calif., USA) supplemented with 10% fetal bovine serum (FBS) (Si Ji Qing, Hangzhou, China) and 1% penicillin/streptomycin/amphotericin B (imported from Invitrogen, Carlsbad, Calif., USA). […]
Please respond with the number in nM and leave the unit unwritten.

Field IC50 (entry CC(=O)c1cc2c(O)c3ccccc3c(OC(=O)CNC(=O)OC(C)(C)C)c2o1 [compound III] ) reads 2070

get_value(item= CC(=O)c1cc2c(OC(=O)C(Cl)Cl)c3ccccc3c(OC(=O)C(Cl)Cl)c2o1 [compound VI] , readout=IC50) returns 700

IC50 measured on CC(=O)Oc1c2ccccc2c(OC(=O)CNC(=O)OC(C)(C)C)c2oc(C(C)=O)cc12 [compound IV] = 1140

Given item CC(=O)Oc1c2ccccc2c(OC(C)=O)c2oc(C(C)=O)cc12 [reference compound] , the value recorded as its IC50 is 1080

Taken from patent US9150530B2.
